# Tested on: DMS-114
# PROTOCOL SUMMARY: NCI tumour cell line growth inhibition, 48 h
The source made the active and inactive calls. Cut-off read from the data, not from the text of the source: active = GI50 up to about 1.1 µM and inactive = higher.
Assignment: determine reported GI50 for the given compounds.

Query: GI50; subject: Cc1cc2c(cc1C)NC(=O)C(NC(=O)/C=C/c1ccccc1)C=N2 (stereo not drawn)
12.3 µM (inactive)

Also O=[N+]([O-])c1cccc(C2ON2C2CCCCC2)c1 (stereo not drawn) ?
19.1 µM (inactive)

Next up: COc1c(C(=O)c2ccc([N+](=O)[O-])cc2)cc(C(C)(C)C)cc1C(C)(C)C
22.1 µM (inactive)

What would you report for COc1ccc(C(=O)C/C(=N/NC(N)=S)C(=O)Nc2ccccc2)cc1 ?
> 100 µM (inactive)

Follow-up item: O=C1C(Cl)N(c2ccc([N+](=O)[O-])cc2)C1c1c[nH]c2ccccc12 (stereo not drawn)
38 µM (inactive)

And what about the compound O=c1c2cc(Br)ccc2nc(-c2ccccc2Cl)n1NCC1(O)OCC(O)C(O)C1O (stereo not drawn) ?
75.9 µM (inactive)

Likewise for Cc1ccc(S(=O)(=O)NC2(C=O)CCC(C(C)(C)C)CC2)cc1 (stereo not drawn) ?
20.4 µM (inactive)

Try the compound CCCC(S(=O)(=O)c1ccccc1)S(=O)(=O)c1ccccc1
> 100 µM (inactive)

Entry COC(=O)C(C(=O)C(=O)Nc1ccc(C(F)(F)F)cc1[N+](=O)[O-])c1csc(-n2nc(-c3ccccc3)cc2-c2ccccc2)n1 (stereo not drawn) please
> 100 µM (inactive)

Same thing, different compound: CC[C@@]1(O)C(=O)OCc2c1c(Cl)c1n(c2=O)Cc2cc3ccccc3nc2-1
1.35 µM (inactive)

Proceed to CCOP(=O)(Cc1ccc(CP(=O)(OCC)OCC)n1C)OCC
> 100 µM (inactive)

Now the same for O=NN(CC1(O)OCC(O)C(O)C1O)C(Cc1c[nH]c2ccccc12)C(=O)O (stereo not drawn)
> 100 µM (inactive)

How about this compound: NC1=NCC(c2ccccn2)C1c1ccc(F)cc1 (stereo not drawn)
> 100 µM (inactive)

Also, NC(=O)C(=O)n1ncc(Cl)c(Cl)c1=O please.
16.9 µM (inactive)

Next record, please: COc1nc2c(c(O)c(C)c(=O)n2OC2OCC(OC(C)=O)C(OC(C)=O)C2OC(C)=O)c(=O)n1C (stereo not drawn)
> 100 µM (inactive)

Next compound up: OCc1c[te]c(-c2ccccc2)c1
26.8 µM (inactive)

One more compound: CCCC(O)c1cn(-c2cccc(S(=O)(=O)O)c2)nn1 (stereo not drawn)
> 100 µM (inactive)

Now the compound CC(C)(C)[Si](C)(C)O/N=C\c1ccc(O[Si](C)(C)C(C)(C)C)cc1
25.9 µM (inactive)

----------
# Test system: SK-MEL-2
# PROTOCOL SUMMARY: NCI tumour cell line growth inhibition, 48 h
Active and inactive are the calls of the source. Cut-off read from the data, not from the text of the source: active = GI50 up to about 1.1 µM and inactive = higher. Numbered stars: 1 amine (or outer) side, 2 acyl side, 3 side chain; on linkers, the order of the positions; unused ones are H or OH. Square brackets hold non-standard residues; d marks the D form. Peptide text beside a SMILES is read from it. * marks the point of attachment. X30 = CC(=O)N(C)SCC(N[*:1])C(=O)[*:2]; Cbz = O=C(OCc1ccccc1)*; Bn = c1ccc(C*)cc1
Tick one outcome: active, inactive

Hello, I am checking results. What call was entered for O=C1O/C(=C\c2ccc(O)cc2)C(c2ccc(O)c(Cl)c2)=C1Cl ?
inactive

Same for Cc1ccc(NC(=O)c2cc(S(=O)(=O)Nc3n[nH]c(=O)n3-c3ccccc3)c(S)cc2Cl)cc1
inactive

Quick one: CC(C)OC1=C(CC2(C)OCCO2)C(=O)C12OCCO2
inactive

Now try S=C(N1CCN(c2ccc(Cl)c(Cl)c2)CC1)N1CCN(c2ccc(Cl)c(Cl)c2)CC1 .
inactive

Next up: CC(=O)N1C(Nc2nccs2)CCN1c1ccccc1 (stereo not given)
inactive

Try the molecule CCCCCCCCCCCCNC(=O)NCC(OCC)OCC
inactive

Entry to check: CCOP(=O)(Cc1ccc(CP(=O)(OCC)OCC)n1C)OCC
inactive

Item: Nc1nc2c(ncn2CCCC(c2ccccc2)P(=O)(O)O)c(=O)[nH]1 (stereo not given)
inactive

Subsequent entry: S=c1[nH]n2c(CCCCCCCCc3nnc4sc(=S)[nH]n34)nnc2s1
inactive

Another molecule to look at: CC(=O)N1CN2C(=O)CCC2c2ccccc21 (stereo not given)
inactive

Next record, please: Cc1cccc2c1CC(C1OC(=O)c3c(C)cccc31)C2=O (stereo not given)
inactive

Next molecule: C[n+]1cccc2ccc(OC(=O)c3ccccc3)cc21
inactive

Next up: N#CC(C#N)=CNC(=S)Nc1ccc(S(=O)(=O)Nc2nccs2)cc1
inactive

And what about the molecule C#CC1(O)C(COP(=O)(O)OCC2OC(n3ccc(NCCCCCCCCCCCCCCCCCC)nc3=O)C(O)C2O)OC(n2ccc(N)nc2=O)C1O (stereo not given) ?
active

Ok, now COc1cccc(NC(=O)CC(=O)NN2C(=O)/C(=C/c3ccc(N(CCC#N)CCC#N)cc3)N=C2c2cc([N+](=O)[O-])ccc2Cl)c1
inactive

Also, c1ccc2c(c1)Sc1nccc3ccnc-2c13 please.
inactive

And what about the molecule CCOC(=O)C(NC(=O)CC(C)C)(NC(C)C)C(F)(F)F (stereo not given) ?
inactive

// next record Clc1ccc(CCN2CCN(CCCc3ccccc3)CC2)cc1Cl
inactive

Again, but for COCn1c2ccc(OC(C)=O)cc2c2c(=O)oc(N(C)C)nc21
inactive

Request: O=C(N/N=C/c1ccccc1)c1c(-c2cccnc2)cnc2ccccc12
inactive

Next molecule: Cc1ccc(S(=O)(=O)NC2(C=O)CCC(C(C)(C)C)CC2)cc1 (stereo not given)
inactive

Then CC1(C)OCC(CO)(Nc2nc(N3CC3)nc(N3CC3)n2)CO1 ?
inactive

Then this molecule: COc1nc2c(c(=O)[nH]1)N=C(c1ccc([N+](=O)[O-])cc1)CC(c1ccccc1)N2 (stereo not given)
inactive

Now the molecule COc1cc2c(c(OC)c1OC)-c1ccc(SC)cc1[C@H](OC(=O)c1ccccc1)CC2
inactive

Would you mind doing CC(C)(C)[Si](C)(C)O/N=C\c1ccc(O[Si](C)(C)C(C)(C)C)cc1 as well?
inactive

Now the same for CC(=O)O[C@H]1CCc2c(cc(N)c3c2C(=O)C[C@]2(C)C([C@H](C)CCCC(C)C)CCC32C)C1(C)C (stereo not given in full)
inactive

Also need CCc1n[nH]c(=O)n1CC , thanks.
inactive

// next record Cc1ccc(S(=O)(=O)NC(CN)C(=O)O)cc1 (stereo not given)
inactive

Also check COC(=O)c1ccc(OCCn2nnc(C(=O)NN)c2C(=O)NN)cc1
inactive

What do we get for CC(=O)N(C)SCC(NC(=O)C(Cc1ccccc1)NC(=O)OCc1ccccc1)C(=O)NC(Cc1ccccc1)C(=O)NC(Cc1c[nH]c2ccccc12)C(=O)NC(CCCCNC(=O)OCc1ccccc1)C(=O)NC(C(=O)NC(CSN(C)C(C)=O)C(=O)NC(C(N)=O)C(C)OCc1ccccc1)C(C)OCc1ccccc1 (stereo not given) (Cbz-F[X30]FWK(Cbz)T(Bn)[X30]T(Bn)-NH2; configuration not given here) ?
inactive

Another molecule to check: O=[N+]([O-])c1ccc2c(c1)nc(Cc1ccc(Cl)cc1)n2C[C@@H]1CCCN2CCCCC12 (stereo not given in full)
inactive

What do you get for CC(C)OC(=O)c1ccc(NCc2cc(O)ccc2O)cc1 ?
inactive

Input COc1cc(/C=C2\C(=O)N(c3ccccc3)C(c3ccccc3)S2(=O)=O)cc(OC)c1OC (stereo not given)
inactive

Further, for CCOC(=O)/C(C#N)=C\C=C1/C=CN=C2NCCN21 ?
inactive

Then this molecule: COc1cccc(/C=C/c2cnc3ccccc3n2)c1OC
inactive

// same read-out, input: COc1ccc2c(c1)c1c3c(ccc4ncn2c43)N(CCO)CCN=1
active

And then COP(=O)(OC)C(O)CC(C)C (stereo not given) , what is it?
inactive

# repeat for Nc1ncnc2c1ncn2C1OC(COP(=O)(O)CP(=O)(O)O)C(O)C1O (stereo not given)
inactive

Try COc1cc2nn(-c3ccccc3)nc2c2nonc12 next.
inactive

Then Cc1ccccc1C(C#N)/C(=N/NC(=O)c1cc2ccccc2cc1O)C(=O)Nc1cccc(Cl)c1 (stereo not given) ?
inactive
